// provenance: the supplement of paper PMC10307832

# Test system: NCI-H1975
# assay-procedure: relative viability (nuclei count vs DMSO), 5 days (fraction); higher = more cells survive
# test-settings: first compound 0.05 µM
measured-property: relative viability

Would you please look over these solved cases?
{"columns": ["molecule", "measured-property", "recorded-measurement"],
 "data": [
  ["Nc1ccn([C@@H]2O[C@H](CO)[C@@H](O)[C@@H]2O)c(=O)n1 [Cytarabine] + CC1(C)CCC(c2ccc(Cl)cc2)=C(CN2CCN(c3ccc(C(=O)NS(=O)(=O)c4ccc(N[C@H](CCN5CCOCC5)CSc5ccccc5)c(S(=O)(=O)C(F)(F)F)c4)cc3)CC2)C1 [Navitoclax] (partner 0.5 µM)", "relative viability", 1.1],
  ["Nc1ccn([C@@H]2O[C@H](CO)[C@@H](O)[C@@H]2O)c(=O)n1 [Cytarabine] + O=C(CCCCCCC(=O)Nc1ccccc1)NO [Vorinostat] (partner 1 µM)", "relative viability", 0.568],
  ["COc1cc2nccc(Oc3ccc(NC(=O)Nc4cc(C)on4)c(Cl)c3)c2cc1OC [Tivozanib] + Cc1cc(Nc2cc(N3CCN(C)CC3)nc(Sc3ccc(NC(=O)C4CC4)cc3)n2)n[nH]1 [Tozasertib] (partner 0.1 µM)", "relative viability", 0.789]
]}

Prompt: # query: relative viability of entry COc1cc2nccc(Oc3ccc(NC(=O)Nc4cc(C)on4)c(Cl)c3)c2cc1OC [Tivozanib] + O=C(CCCCCCC(=O)Nc1ccccc1)NO [Vorinostat] (partner 1 µM)
Completion: 0.712
